Origin of the recorded values: PubChem BioAssay (NCI)

System: U251 CNS
assay.name: NCI-60 one-dose screen, 48 h (100 = growth as untreated, 0 = no growth, -100 = all killed)
settings: 10 µM unless noted
This is part of a sample that, as a whole, favours compounds with a hit. Of some 83,000 tested, about 20% had one in any assay.
compounds and their reported growth
Express your answer in %, writing the number without its unit.

# example entries with known answers
compound	unit.descriptor	assay.result
Nc1ccc(S(=O)(=O)Nc2ncccn2)cc1	%	106
CCCC[N+](CCCC)=c1ccc2nc3c(C)cc(N(CC)CC)cc3sc-2c1	%	-11.3

Consider the compound CCn1c2c(c3ccccc31)SC1c3cccn3CCN1C2=S (stereo unspecified) and give its measured growth.
93.8

Request: COc1c(C)c2c(c(O)c1C/C=C(\C)CCC(=O)OCCN1CCOCC1)C(=O)OC2
14.7
